# tested-on: T1, human DLL3 (ACRO, DLL3-H52H4) (human, UniProt Q9NYJ7 27-492)
# T1 construct: Bought
# T1 sequence: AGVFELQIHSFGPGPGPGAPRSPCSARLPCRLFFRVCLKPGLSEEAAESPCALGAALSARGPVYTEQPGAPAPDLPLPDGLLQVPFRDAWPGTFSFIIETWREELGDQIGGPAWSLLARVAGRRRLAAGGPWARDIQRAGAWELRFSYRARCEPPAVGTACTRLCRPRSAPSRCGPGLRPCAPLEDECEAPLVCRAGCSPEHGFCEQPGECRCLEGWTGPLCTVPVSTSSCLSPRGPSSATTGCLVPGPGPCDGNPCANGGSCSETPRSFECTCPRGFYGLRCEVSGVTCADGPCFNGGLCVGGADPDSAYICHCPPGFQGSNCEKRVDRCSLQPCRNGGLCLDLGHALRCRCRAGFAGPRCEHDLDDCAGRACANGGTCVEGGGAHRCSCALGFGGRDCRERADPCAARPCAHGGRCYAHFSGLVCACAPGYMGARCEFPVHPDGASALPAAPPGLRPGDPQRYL
# test-protocol: SPR Biacore 8K, Ab captured on Protein A
endpoint-name: koff (s⁻¹)

>>> value_measured("hu6L3H1 (antibody, human IgG1, kappa, V domains shown) VH: EVQLVQSGAEVKKPGASVKVSCKASGYTFTDYYMNWVRQAPGQRLEWMGIINPYSGVTIYNHKFKGRVTITVDKSASTAYMELSSLRSEDTAVYYCARQDSLLDYAMDYWGQGTTVTVSS VL: DIQMTQSPSSLSASVGDRVTITCHASQGISGNMGWLQQKPGKSFKGLIYHGANLEDGVPSRFSGSGSGADYTLTISSLQPEDFATYYCVQYAQFPYTFGGGTKVEIKR")
0.00144
>>> value_measured("hu30L4H5 (antibody, human IgG1, kappa, V domains shown) VH: EVRLVQSGAEVKKPGASVKVSCKASGYTFTDYYMNWVRQAPGQSLEWMGIINPYTGDTSYNQKFRGRVTLTVDKSASTAYMELSSLRSEDTAVYYCARYHYGPHLEGYFDVWGQGTTVTVSS VL: DIQMTQSPSSLSASVGDRVTITCKASENVGYVSWYQQKPGKAPKLLIYGASNRYTGVPSRFSGSGSGTDFTLTISSLQPEDFATYYCGQSYSYPLTFGQGTKLEIKR")
0.00092
>>> value_measured("hu30L1H5 (antibody, human IgG1, kappa, V domains shown) VH: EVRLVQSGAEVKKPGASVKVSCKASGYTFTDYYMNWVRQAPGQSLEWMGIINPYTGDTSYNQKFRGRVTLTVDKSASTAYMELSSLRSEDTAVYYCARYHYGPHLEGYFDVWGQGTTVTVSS VL: DIVMTQSPDSLAVSLGERATINCKASENVGYVSWYQQKPGQPPKLLIYGASNRYTGVPDRFSGSGSGTDFTLTISSLQAEDVAVYYCGQSYSYPLTFGQGTKLEIKR")
0.00117
